Tested on: Mycobacterium tuberculosis
Test: Cornell M. t heat shock assay; note: in the data most compounds retested in dose-response had high values
Type: functional, organism-based
Design: dose or concentration left out as unconfirmed
In all, about 69,000 compounds went through this assay and about 950 (1.4%) showed an effect of 50% or more. Many of the other results were omitted from the sample, so strong results are more common in it than they were.
Decide using Percent Effect alone. Strictly below 10%: Criterion met. Equal to or above 10%: Criterion not met.

1) CCN1Cc2cc(OC)ccc2N(CC(C)(C)O)CCC1=O ... Criterion met
2) COc1ccc2c(c1)CN(C)C(=O)CCN2CC(O)C(C)(C)C (stereo not given) ... Criterion not met
3) CC(C)NC(=O)N1Cc2nccn2CC(COc2cccnc2)C1.O=C(O)C(F)(F)F (stereo not given) ... Criterion met
4) COc1cc(N2C[C@H]3CCC[C@@H](CN(C)C)[C@H]3C2)ncn1.O=C(O)C(F)(F)F ... Criterion met
5) CCN1Cc2cc(F)ccc2N(CC(O)C(F)(F)F)CCC1=O (stereo not given) ... Criterion not met

### Prompt # TODO verify Percent Effect < 10% strictly for this compound: Cc1ccc(C(=O)N2CCC3(CC2)CN(c2ccccn2)CCO3)cc1.O=C(O)C(F)(F)F
### Response Criterion met

### Prompt # TODO verify Percent Effect < 10% strictly for this compound: CCOC(=O)C(C)Nc1cccc(COCc2ccco2)c1 (stereo not given)
### Response Criterion not met

###

System: Mycobacterium tuberculosis
Test: Cornell M. t heat shock assay; note: in the data most compounds retested in dose-response had high values
Type: functional, organism-based
Design: dose or concentration left out as unconfirmed
In all, about 69,000 compounds went through this assay and about 950 (1.4%) showed an effect of 50% or more. The sample as a whole holds a higher share of strong results than the screen did.
So I've got a bunch of compounds here, and I need their Percent Effect values.
Give bare numbers, in %.

Okay, here is my list. What is Percent Effect for each of these?
1. CC(=O)N1CCN(C(=O)c2ccc(-c3cccc(C)c3)[nH]c2=O)CC1
2. O=C(CC1CCCO1)NCCCC(=O)Nc1ccc(Cl)cc1 (stereo not given)
3. O=C(CCCNC(=O)NCC1CCCO1)Nc1ccc(Cl)cc1 (stereo not given)
4. CCN(CC)c1ccc(NS(=O)(=O)c2cncc(F)c2)cn1
5. CC(C)CS(=O)(=O)N1C[C@H]2C[C@H](C(=O)N3CCCC3)[C@@H](C1)O2
6. O=C(O)C(F)(F)F.c1coc(CN2CCC3(CC2)COC(COCC2CC2)C3)c1 (stereo not given)
7. O=C(O)C(F)(F)F.O=C(O)C(F)(F)F.O=C1NC2(CCN(Cc3cccs3)CC2)CC1c1ccncc1 (stereo not given)

### Response
[14.72, 63.53, 40.56, -17.45, 18.86, -19.69, -33.96]

Okay, here is my list. What is Percent Effect for each of these?
1. CCN(CC)c1ccc(NS(=O)(=O)c2cnn(C)c2)cn1
2. Cc1cccc(-c2ccc(C(=O)N3CCN(C(C)C)CC3)c(=O)[nH]2)c1
3. CCN(CC)c1ccc(NS(=O)(=O)c2cccnc2)cn1

### Response
1: -23.7; 2: 7.848; 3: 61.96

###

System: Mycobacterium tuberculosis
Test: Cornell M. t heat shock assay; note: in the data most compounds retested in dose-response had high values
Format: functional, organism-based
Design: dose or concentration left out as unconfirmed
The whole screen tested about 69,000 compounds, of which about 950 (1.4%) showed an effect of 50% or more. Many of the other results were omitted from the sample, so strong results are more common in it than they were.
Endpoint name: Percent Effect (%)
Numbers only, in %.

1) Cc1nn(C)cc1CN1CCCCCC1c1ccccc1Cl (configuration not stated) ... -8.916
2) Cc1ccsc1C1CCCCCN1Cc1cn(C)nc1C (configuration not stated) ... 17.22
3) Cc1ccc(C2CCCCCN2Cc2cn(C)nc2C)s1 (configuration not stated) ... 11.6
4) Cc1cnc(Nc2cccc(C3CCCN3Cc3cn(C)nc3C)n2)s1 (configuration not stated) ... 104.4

Okay, here is my list. What is Percent Effect for each of these?
1. CS(=O)(=O)N1CCCC1c1cccc(Cc2ccccc2F)n1 (configuration not stated)
2. c1ccc(CCN2CCCC2c2cccc(Nc3nccs3)n2)cc1 (configuration not stated)
3. Cc1nn(C)cc1CN1CCCC1c1cccc(Nc2nccs2)n1 (configuration not stated)

### Response
[-7.758, 104.9, 99.7]

Data provenance is ChEMBL document CHEMBL3988442.
